Below, each entry is listed alongside its reported Emax.
- assaySystem: M4 muscarinic receptor (Homo sapiens)
- Construct: expressed in transfected cells; host or cells: CHO (M4-CHO)
- Sequence (P08173 whole entry): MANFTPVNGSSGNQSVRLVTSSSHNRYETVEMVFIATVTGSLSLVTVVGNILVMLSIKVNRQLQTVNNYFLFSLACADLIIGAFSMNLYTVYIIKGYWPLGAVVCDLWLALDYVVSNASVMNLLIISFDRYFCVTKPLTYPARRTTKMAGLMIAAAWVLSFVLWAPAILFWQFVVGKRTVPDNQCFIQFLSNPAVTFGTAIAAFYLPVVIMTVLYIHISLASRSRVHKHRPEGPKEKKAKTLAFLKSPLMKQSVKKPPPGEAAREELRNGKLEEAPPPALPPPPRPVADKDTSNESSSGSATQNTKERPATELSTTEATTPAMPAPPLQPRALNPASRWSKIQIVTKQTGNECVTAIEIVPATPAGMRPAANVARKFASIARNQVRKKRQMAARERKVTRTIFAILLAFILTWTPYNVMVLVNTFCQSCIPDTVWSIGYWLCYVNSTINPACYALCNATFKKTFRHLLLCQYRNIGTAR
- testDescription: Functional mobilization of intracellular calcium (FLIPR) in CHO cells expressing M4
- Assay type: cell-based
- protocolConditions: CHO; 100% = maximum response obtained with the Carbachol control; read-out: M4 Efficacy

>  <molecule>
CC(C)(C)CCN1CCC2(CC[C@@H](NC(=O)C3CCCN(C(=O)C4CC4)C3)c3ccccc32)CC1 (some centres unmarked)

>  <Emax>
25 to 100%

$$$$
>  <molecule>
CCN(C(=O)CC1CCCC1=O)[C@H]1CCC2(CCN(CCC(C)(C)C)CC2)c2ccccc21 (some centres unmarked)

>  <Emax>
25 to 100%

$$$$
>  <molecule>
CC(C)(C)CCN1CCC2(CC[C@@H](NC(=O)CC3CCOCC3)c3ccc(F)cc32)CC1

>  <Emax>
25 to 100%

$$$$
>  <molecule>
CCC(=O)N[C@@H]1CCC2(CCN(CCC(C)(C)C)CC2)c2cc(F)ccc21

>  <Emax>
25 to 100%

$$$$
>  <molecule>
COCCC(=O)N[C@H]1CCC2(CCN(CCC(C)(C)C)CC2)c2ccccc21

>  <Emax>
25 to 100%

$$$$
>  <molecule>
COC(=O)CN(C(C)=O)[C@H]1CCC2(CCN(CCC(C)(C)C)CC2)c2ccccc21

>  <Emax>
25 to 100%

$$$$
>  <molecule>
CN([C@H]1CCC2(CCN(CCC(C)(C)C)CC2)c2ccccc21)S(C)(=O)=O

>  <Emax>
25 to 100%

$$$$
>  <molecule>
CC(C)(C)CCN1CCC2(CC[C@H](NC(=O)C3CCCO3)c3ccccc32)CC1 (some centres unmarked)

>  <Emax>
25 to 100%

$$$$

---

Reported pEC50 is given for each of the following molecules.
- assaySystem: UniProt P08172
- Sequence (P08172 whole entry): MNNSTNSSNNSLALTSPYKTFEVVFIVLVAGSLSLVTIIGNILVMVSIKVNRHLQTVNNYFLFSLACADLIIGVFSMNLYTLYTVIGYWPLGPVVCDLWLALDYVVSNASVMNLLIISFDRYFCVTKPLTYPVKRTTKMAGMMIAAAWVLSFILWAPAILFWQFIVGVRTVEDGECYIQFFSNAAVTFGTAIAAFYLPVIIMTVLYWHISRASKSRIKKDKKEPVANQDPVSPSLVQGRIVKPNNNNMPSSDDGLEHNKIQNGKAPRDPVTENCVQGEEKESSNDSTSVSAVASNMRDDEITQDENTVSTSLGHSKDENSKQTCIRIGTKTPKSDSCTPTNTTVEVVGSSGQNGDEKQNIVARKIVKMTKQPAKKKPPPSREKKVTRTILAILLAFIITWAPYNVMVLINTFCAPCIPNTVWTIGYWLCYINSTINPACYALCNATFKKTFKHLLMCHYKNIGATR
- testDescription: Functional mobilization of intracellular calcium (FLIPR) in CHO cells expressing M2
- protocolConditions: CHO cells expressing M2, FLIPR calcium
pEC50: −log10 of the molar value.

>  <molecule>
CCC(=O)N1CCCCC1C(=O)N[C@@H]1CCC2(CCN(CCC(C)(C)C)CC2)c2ccccc21 (stereo partly shown)

>  <pEC50>
5.30 to 5.70

$$$$
>  <molecule>
CC(C)(C)CCN1CCC2(CC[C@@H](N3CCCCC3=O)c3ccc(F)cc32)CC1

>  <pEC50>
< 5.30

$$$$
>  <molecule>
CC(=O)N(C1CC1)C1CCC2(CCN(CCC(C)(C)C)CC2)c2ccccc21 (stereo not shown)

>  <pEC50>
< 5.30

$$$$
>  <molecule>
CCN(C(=O)C1CCN(C(=O)OC)CC1)[C@H]1CCC2(CCN(CCC(C)(C)C)CC2)c2ccccc21

>  <pEC50>
< 5.30

$$$$

---

- assaySystem: M1 muscarinic receptor (Homo sapiens)
- Sequence (P11229 1-460): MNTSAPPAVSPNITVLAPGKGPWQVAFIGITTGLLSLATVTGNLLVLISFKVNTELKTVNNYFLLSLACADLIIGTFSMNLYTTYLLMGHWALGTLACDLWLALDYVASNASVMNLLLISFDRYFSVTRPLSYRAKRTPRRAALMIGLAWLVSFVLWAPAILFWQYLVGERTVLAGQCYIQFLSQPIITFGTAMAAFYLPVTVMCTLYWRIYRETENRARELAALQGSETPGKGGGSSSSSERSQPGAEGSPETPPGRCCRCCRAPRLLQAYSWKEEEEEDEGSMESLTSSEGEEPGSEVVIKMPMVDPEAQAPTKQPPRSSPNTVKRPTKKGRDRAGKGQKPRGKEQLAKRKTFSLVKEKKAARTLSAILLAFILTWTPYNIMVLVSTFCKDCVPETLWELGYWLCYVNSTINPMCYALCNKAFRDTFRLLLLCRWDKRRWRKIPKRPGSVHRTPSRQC
- testDescription: Functional mobilization of intracellular calcium (FLIPR) in CHO cells expressing M1
- protocolConditions: CHO cells expressing M1, FLIPR calcium
Item-by-item account of EC50
measurementType: EC50

>  <compound>
CN(C(=O)C1CCCC1)[C@H]1CCC2(CCN(CCC(C)(C)C)CC2)c2ccccc21

>  <value>
> 5000 nM

$$$$
>  <compound>
CC(=O)N1CCCC[C@@H]1C(=O)N[C@H]1CCC2(CCN(CCC(C)(C)C)CC2)c2cc(F)ccc21

>  <value>
< 2000 nM

$$$$
>  <compound>
CC(=O)N[C@H]1CCC2(CCN(CCCCC(C)(C)C#N)CC2)c2ccccc21

>  <value>
< 2000 nM

$$$$
>  <compound>
CN([C@H]1CCC2(CCN(CCC(C)(C)C)CC2)c2ccccc21)S(C)(=O)=O

>  <value>
< 2000 nM

$$$$
>  <compound>
CC(C)(C)CCN1CCC2(CC[C@H](NC(=O)CCN3CCCC3=O)c3ccc(F)cc32)CC1

>  <value>
< 2000 nM

$$$$
>  <compound>
Cn1cnc(C(=O)N[C@H]2CCC3(CCN(CCC(C)(C)C)CC3)c3ccccc32)c1

>  <value>
< 2000 nM

$$$$
>  <compound>
CC(=O)N1CCC(C(=O)N(C)[C@H]2CCC3(CCN(CCC(C)(C)C)CC3)c3ccccc32)CC1

>  <value>
2000 to 5000 nM

$$$$
>  <compound>
CN(C)C(=O)N[C@H]1CCC2(CCN(CCC(C)(C)C)CC2)c2ccccc21

>  <value>
> 5000 nM

$$$$
>  <compound>
CC(C)CCN1CCC2(CCCc3ccccc32)CC1

>  <value>
> 5000 nM

$$$$
>  <compound>
CC(=O)CCC(=O)N[C@H]1CCC2(CCN(CCC(C)(C)C)CC2)c2cc(F)ccc21

>  <value>
< 2000 nM

$$$$
>  <compound>
CCC(=O)N[C@@H]1CCC2(CCN(CCC(C)(C)C)CC2)c2cc(F)ccc21

>  <value>
< 2000 nM

$$$$
>  <compound>
CC(=O)N(C(C)C)[C@H]1CCC2(CCN(CCC(C)C)CC2)c2ccccc21

>  <value>
2000 to 5000 nM

$$$$
>  <compound>
CC(C)(C)CCN1CCC2(CC[C@H](N3CCCC3=O)c3ccc(F)cc32)CC1

>  <value>
< 2000 nM

$$$$
>  <compound>
CC(=O)N1CCCC[C@H]1C(=O)N[C@@H]1CCC2(CCN(CCC(C)(C)C)CC2)c2cc(F)ccc21

>  <value>
2000 to 5000 nM

$$$$
>  <compound>
CN1CC(C(=O)N[C@H]2CCC3(CCN(CCC(C)(C)C)CC3)c3ccccc32)CC1=O (stereo partly shown)

>  <value>
< 2000 nM

$$$$
>  <compound>
CCN(C(=O)CCC(=O)NC)[C@H]1CCC2(CCN(CCC(C)(C)C)CC2)c2ccccc21

>  <value>
< 2000 nM

$$$$
